molecular target: Axl (Homo sapiens); construct: endogenous in cells; host or cells: HeLa cells; experiment: Phospho-Akt in-cell Western assay (inhibition of Axl activity); assay type: cell-based; conditions: inhibition of Axl activity, Table 1
pIC50: −log10 of the molar value.
Quantity kind: pIC50

The value of pIC50 measured for the compound `COc1cccc(Nc2nc(N)n(C(=O)c3ccc(C)cc3)n2)c1` turned out to be 5.00 to 6.00

The value of pIC50 measured for the compound `Nc1nc(Nc2cccc(OCCN3CCOCC3)c2)nn1C(=O)c1ccccc1` turned out to be < 4.70

The value of pIC50 measured for the compound `CC(C)Oc1ccc(C(=O)n2nc(Nc3cccc(OCCN4CCOCC4)c3)nc2N)cc1` turned out to be 5.00 to 6.00

The value of pIC50 measured for the compound `CC(C)Oc1cccc(C(=O)n2nc(Nc3cccc(-c4cnco4)c3)nc2N)c1` turned out to be 5.00 to 6.00

The value of pIC50 measured for the compound `CC(C)Oc1ccc(C(=O)n2nc(Nc3ccc(OCCN4CCSCC4)cc3)nc2N)cc1` turned out to be > 6.00

----------
For each record, write down the corresponding IC50.
Target: Axl (Homo sapiens, UniProt P30530)
Construct: endogenous in cells; host or cells: HeLa cells
Sequence (P30530 26-894): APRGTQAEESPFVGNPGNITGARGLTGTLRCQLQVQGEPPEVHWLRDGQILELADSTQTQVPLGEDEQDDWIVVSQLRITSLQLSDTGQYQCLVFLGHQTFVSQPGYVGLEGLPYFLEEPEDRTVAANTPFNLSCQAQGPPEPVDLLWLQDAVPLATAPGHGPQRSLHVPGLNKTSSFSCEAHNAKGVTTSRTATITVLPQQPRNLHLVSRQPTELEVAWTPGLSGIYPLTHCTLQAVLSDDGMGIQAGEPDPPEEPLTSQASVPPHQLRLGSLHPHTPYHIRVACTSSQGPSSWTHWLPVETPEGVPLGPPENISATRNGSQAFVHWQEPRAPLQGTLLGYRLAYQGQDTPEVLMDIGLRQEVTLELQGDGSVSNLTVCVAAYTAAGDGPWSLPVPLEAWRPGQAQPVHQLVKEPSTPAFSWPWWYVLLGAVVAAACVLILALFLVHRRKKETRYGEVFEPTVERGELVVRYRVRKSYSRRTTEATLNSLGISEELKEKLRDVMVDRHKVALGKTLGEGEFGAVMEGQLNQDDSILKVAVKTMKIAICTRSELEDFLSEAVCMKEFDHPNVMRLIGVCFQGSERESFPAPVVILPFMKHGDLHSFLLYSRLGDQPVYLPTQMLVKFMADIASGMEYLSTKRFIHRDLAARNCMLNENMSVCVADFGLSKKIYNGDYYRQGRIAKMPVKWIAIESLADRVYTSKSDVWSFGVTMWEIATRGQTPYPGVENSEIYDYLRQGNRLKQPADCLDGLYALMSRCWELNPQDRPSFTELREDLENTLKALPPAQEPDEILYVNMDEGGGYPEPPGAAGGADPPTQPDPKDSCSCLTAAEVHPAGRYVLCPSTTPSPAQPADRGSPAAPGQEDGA
Experiment: Phospho-Akt in-cell Western assay (inhibition of Axl activity)
Type: cell-based
Conditions: Table 7; Hela cells, Axl antibody cross-linking stimulation, phospho-Akt chemiluminescence

The value of IC50 measured for the compound COc1ccc(NC(=O)n2nc(Nc3ccc(OCCN4CCCCC4)cc3)nc2N)cc1 [compound 40] turned out to be 1000 to 10000 nM

The value of IC50 measured for the compound Cc1cccc(NC(=O)n2nc(Nc3ccc(OCCN4CCCC4)cc3)nc2N)c1 [compound 31] turned out to be < 1000 nM

The value of IC50 measured for the compound CCCCOc1ccc(NC(=O)n2nc(Nc3ccc(OCCN4CCCCC4)cc3)nc2N)cc1 [compound 46] turned out to be 1000 to 10000 nM

The value of IC50 measured for the compound Cc1ccc(NC(=O)n2nc(Nc3ccc(OCCN4CCCCC4)cc3)nc2N)cc1 [compound 39] turned out to be 1000 to 10000 nM

The value of IC50 measured for the compound COc1ccc(Nc2nc(N)n(C(=O)Nc3ccc(Cl)cc3)n2)cc1 [compound 172] turned out to be > 20000 nM

The value of IC50 measured for the compound CC(=O)N(C)c1ccc(Nc2nc(N)n(C(=O)Nc3ccc(C(C)C)cc3)n2)cc1 [compound 179] turned out to be 1000 to 10000 nM

The value of IC50 measured for the compound Cc1cccc(NC(=O)n2nc(Nc3ccc(OCCN4CCCCC4)cc3)nc2N)c1 [compound 29] turned out to be < 1000 nM

The value of IC50 measured for the compound Nc1nc(Nc2ccc(OCCN3CCCCC3)cc2)nn1C(=O)Nc1ccc2c(c1)OCO2 [compound 35] turned out to be 1000 to 10000 nM
